Measured Activity accompanies every entry in the list below.
Test system: Radical scavenging activity
protocol-description: Antioxidant activity assessed as DPPH free radical scavenging activity at 50 ug/ml after 20 mins
Assay type: functional
Record the value in %, omitting the unit from your answer.

For orientation, consider the following solved cases.
1. c1ccc(-c2cc(-c3noc(-c4ccccc4)n3)n(-c3ccccc3)n2)cc1
28
2. c1ccc(C2=NN(c3ccccc3)C(c3noc(-c4ccccc4)n3)C2)cc1 (stereo not given)
28
3. COc1ccccc1-c1nc(C2CC(c3ccc(Cl)cc3)=NN2c2ccccc2)no1 (stereo not given)
30
4. COc1ccc(-c2nc(C3CC(c4ccccc4)=NN3c3ccccc3)no2)cc1OC (stereo not given)
56
5. Clc1ccc(-c2nc(C3CC(c4ccccc4)=NN3c3ccccc3)no2)cc1 (stereo not given)
42

GET /values?readout=Activity&item= COc1ccc(C2=NN(c3ccccc3)C(c3noc(-c4ccccc4OC)n3)C2)cc1 (stereo not given)
41

Entry "O=C1O[C@H]([C@@H](O)CO)C(O)=C1O" : reported Activity = ?
57

Record request: Activity value, item COc1ccc(-c2nc(C3CC(c4ccc(O)cc4)=NN3c3ccccc3)no2)cc1OC (stereo not given)
53

Fill in the blank: the reported Activity of N/C(=N\O)C1CC(c2ccccc2)=NN1c1ccccc1 (stereo not given) is ____.
28

// Activity lookup, key: N/C(=N\O)C1CC(c2ccc(O)cc2)=NN1c1ccccc1 (stereo not given)
41

Reference for the values: ChEMBL document CHEMBL2406981
